# experimentDescription: Toxicity: lymphocyte proliferation assay with MTT in the HIV-1 infected PBL cultures
# Assay type: cell-based
# experimentalSetup: human, pbls, 50 μg/mℓ, Table 8 (3 days incubation), read-out: Proliferation as a percentage of control value
observedProperty: viability (%)
The answer is to be given in %; state only the numeric part.

Query: Item O=S(=O)(O)Oc1ccc(C#CC/C=C/c2ccc(OS(=O)(=O)O)c(O)c2)cc1O [Compound XVII] has what recorded viability?
Reply: 84

###

# experimentDescription: Toxicity: lymphocyte proliferation assay with MTT in the HIV-1 infected PBL cultures
# Assay type: cell-based
# experimentalSetup: human, pbls, 50 μg/mℓ, Table 8 continued (6 days incubation), read-out: Proliferation as a percentage of control value
observedProperty: viability (%)
# number only, unit % dropped from output

Query: For the molecule `O=S(=O)(O)Oc1ccc(C#CC/C=C/c2ccc(OS(=O)(=O)O)c(O)c2)cc1O` , what viability is on record?
Reply: 96

###

# experimentDescription: Toxicity: lymphocyte proliferation assay with MTT in the HIV-1 infected PBL cultures
# Format: cell-based
# experimentalSetup: human, pbls, 12.5 µg/ℓ, viral titre lowered ten-fold, read-out: Proliferation as a percentage of control value
observedProperty: viability (%)
Kindly answer with a numeric value in %, unit omitted.

Query: What value of measured viability is listed for `OC[C@H]1O[C@@H](Oc2ccc(C#CC/C=C/c3ccc(O[C@@H]4O[C@H](CO)[C@@H](O)[C@H](O)[C@H]4O)c(O)c3)cc2O)[C@H](O)[C@@H](O)[C@@H]1O` ?
Reply: 94

###

# experimentDescription: Toxicity: lymphocyte proliferation assay with MTT in the HIV-1 infected PBL cultures
# Assay type: cell-based
# experimentalSetup: human, pbls, 6.25 µg/ℓ, viral titre lowered ten-fold, read-out: Proliferation as a percentage of control value
observedProperty: viability

Query: Data request, read-out viability, for `OC[C@H]1O[C@@H](Oc2ccc(C#CC/C=C/c3ccc(O[C@@H]4O[C@H](CO)[C@@H](O)[C@H](O)[C@H]4O)c(O)c3)cc2O)[C@H](O)[C@@H](O)[C@@H]1O`
Reply: 94%

###

# experimentDescription: Toxicity: lymphocyte proliferation assay with MTT in the HIV-1 infected PBL cultures
# Assay type: cell-based
# experimentalSetup: human, pbls, 6.25 µg/mℓ, dissolved in water, standard titre of HIV-1, read-out: Proliferation as a percentage of control value
observedProperty: viability (%)
Could you give me the number in %? Just the number is fine.

Query: May I ask what viability has been recorded for `OC[C@H]1O[C@@H](Oc2ccc(C#CC/C=C/c3ccc(O[C@@H]4O[C@H](CO)[C@@H](O)[C@H](O)[C@H]4O)c(O)c3)cc2O)[C@H](O)[C@@H](O)[C@@H]1O` ?
Reply: 94
